Test Target: T1, recombinant human CD73 protein (human, UniProt P21589 27-549, limits assumed)
T1 sequence (looked up): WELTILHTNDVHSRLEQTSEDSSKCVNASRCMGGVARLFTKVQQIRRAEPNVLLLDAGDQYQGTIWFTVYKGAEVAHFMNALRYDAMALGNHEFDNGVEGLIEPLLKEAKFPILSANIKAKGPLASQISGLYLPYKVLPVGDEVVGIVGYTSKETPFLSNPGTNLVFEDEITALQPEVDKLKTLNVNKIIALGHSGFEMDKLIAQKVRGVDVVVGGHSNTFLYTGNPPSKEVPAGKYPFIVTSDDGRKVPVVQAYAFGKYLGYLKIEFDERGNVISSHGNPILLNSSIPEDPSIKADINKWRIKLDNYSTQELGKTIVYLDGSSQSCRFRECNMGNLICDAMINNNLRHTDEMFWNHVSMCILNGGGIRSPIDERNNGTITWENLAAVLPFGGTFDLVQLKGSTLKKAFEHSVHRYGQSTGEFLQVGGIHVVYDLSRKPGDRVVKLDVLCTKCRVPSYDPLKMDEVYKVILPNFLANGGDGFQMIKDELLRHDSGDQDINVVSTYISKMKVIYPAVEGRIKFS
Test: cell-based or functional assay
The binders listed here are annotated with their IC90 of inhibition of CD73 enzymatic function (luciferase-based assay).
Observable: IC90 of inhibition of CD73 enzymatic function (luciferase-based assay)

Binder	Result
C5 (antibody, human IgG1, kappa, L234A L235A, V domains shown, Humanized monoclonal antibody; also called anti-CD73 antibody C5) VH: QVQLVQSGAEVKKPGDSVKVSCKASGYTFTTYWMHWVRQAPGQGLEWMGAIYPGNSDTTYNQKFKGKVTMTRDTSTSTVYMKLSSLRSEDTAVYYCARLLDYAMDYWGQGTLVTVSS VL: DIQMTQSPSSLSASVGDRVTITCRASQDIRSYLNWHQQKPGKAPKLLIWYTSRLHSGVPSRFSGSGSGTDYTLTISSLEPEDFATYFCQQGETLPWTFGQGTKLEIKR	0.29 nM
B2 (antibody, human IgG1, kappa, L234A L235A, V domains shown, Humanized monoclonal antibody; also called anti-CD73 antibody B2) VH: EVQLVESGGGLVQPGGSLRLSCAASGLTFSSYVMSWVRQAPGKGLEWVSTISSGGVSTYYPDTVKGRFTISRDNSKNTLYLQMNSLRAEDTAVYYCAKRETARATGFAYWGQGTLVTVSA VL: DIQMTQSPSSLSASVGDRVTITCKASQSVSDDVTWYQQKPGKAPKLLIYYASNRYTGVPSRFSGSGSGTDFTFTISSVQPEDIATYYCQQDYSSPWTFGGGTKLEIKR	1.04 nM
